target: Mutant type EZH2(Y641F) (Homo sapiens (Human), UniProt Q15910, Y641F); assay: AlphaLISA, mutant type PRC2 complex EZH2(Y641F); conditions: read-out: Mutant type EZH2(Y641F) IC50 Nanomoles per Liter
Sequence (Q15910 whole entry Y641F): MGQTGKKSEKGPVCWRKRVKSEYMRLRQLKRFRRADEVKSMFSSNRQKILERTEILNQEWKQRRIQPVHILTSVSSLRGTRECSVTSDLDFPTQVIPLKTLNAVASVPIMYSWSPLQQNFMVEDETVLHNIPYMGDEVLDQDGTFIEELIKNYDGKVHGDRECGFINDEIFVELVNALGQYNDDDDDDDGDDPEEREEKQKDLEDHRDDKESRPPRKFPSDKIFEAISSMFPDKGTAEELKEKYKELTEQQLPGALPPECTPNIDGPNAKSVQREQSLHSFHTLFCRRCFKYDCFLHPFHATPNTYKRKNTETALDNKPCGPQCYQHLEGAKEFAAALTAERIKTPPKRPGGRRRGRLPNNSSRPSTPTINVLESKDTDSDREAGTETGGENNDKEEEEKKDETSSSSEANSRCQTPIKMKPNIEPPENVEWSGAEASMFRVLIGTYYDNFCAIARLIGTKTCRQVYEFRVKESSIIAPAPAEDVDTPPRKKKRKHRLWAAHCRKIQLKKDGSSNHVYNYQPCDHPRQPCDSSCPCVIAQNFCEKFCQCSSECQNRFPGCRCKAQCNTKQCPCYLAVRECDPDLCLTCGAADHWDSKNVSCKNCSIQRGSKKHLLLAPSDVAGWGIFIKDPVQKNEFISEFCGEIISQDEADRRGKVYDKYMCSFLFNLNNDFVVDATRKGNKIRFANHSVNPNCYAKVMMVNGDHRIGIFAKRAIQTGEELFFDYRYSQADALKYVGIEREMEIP
Sequence (O75530 whole entry partner): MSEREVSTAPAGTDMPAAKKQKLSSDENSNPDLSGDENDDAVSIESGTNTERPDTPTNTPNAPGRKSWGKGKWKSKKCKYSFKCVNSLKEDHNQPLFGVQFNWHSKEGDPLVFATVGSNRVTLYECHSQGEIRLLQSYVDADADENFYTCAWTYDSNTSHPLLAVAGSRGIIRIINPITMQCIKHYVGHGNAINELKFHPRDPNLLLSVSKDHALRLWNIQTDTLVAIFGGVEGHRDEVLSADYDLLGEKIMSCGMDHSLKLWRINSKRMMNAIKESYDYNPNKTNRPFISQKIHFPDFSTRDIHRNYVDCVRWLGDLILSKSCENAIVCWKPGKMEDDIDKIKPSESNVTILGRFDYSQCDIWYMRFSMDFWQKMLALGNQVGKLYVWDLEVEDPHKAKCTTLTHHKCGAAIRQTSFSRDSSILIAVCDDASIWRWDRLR
Sequence (Q15022 whole entry partner): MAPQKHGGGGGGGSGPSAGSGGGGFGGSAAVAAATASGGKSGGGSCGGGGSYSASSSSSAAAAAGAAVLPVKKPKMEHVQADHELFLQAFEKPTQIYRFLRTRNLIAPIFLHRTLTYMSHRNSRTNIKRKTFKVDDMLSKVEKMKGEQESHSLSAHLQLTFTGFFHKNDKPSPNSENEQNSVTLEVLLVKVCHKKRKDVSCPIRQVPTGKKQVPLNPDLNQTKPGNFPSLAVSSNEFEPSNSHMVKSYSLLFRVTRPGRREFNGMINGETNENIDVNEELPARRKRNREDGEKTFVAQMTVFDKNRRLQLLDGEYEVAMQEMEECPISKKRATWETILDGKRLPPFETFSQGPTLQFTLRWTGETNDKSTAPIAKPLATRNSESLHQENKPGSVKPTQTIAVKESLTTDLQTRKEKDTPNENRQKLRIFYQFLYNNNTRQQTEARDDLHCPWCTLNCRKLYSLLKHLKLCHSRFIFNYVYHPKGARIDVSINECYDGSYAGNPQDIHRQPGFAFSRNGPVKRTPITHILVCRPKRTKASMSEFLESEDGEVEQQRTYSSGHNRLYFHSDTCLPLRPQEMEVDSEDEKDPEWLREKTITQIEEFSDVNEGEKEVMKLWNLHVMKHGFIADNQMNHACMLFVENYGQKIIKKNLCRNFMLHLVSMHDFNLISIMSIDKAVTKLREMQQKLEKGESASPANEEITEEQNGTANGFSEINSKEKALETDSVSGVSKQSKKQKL
Sequence (Q09028 whole entry partner): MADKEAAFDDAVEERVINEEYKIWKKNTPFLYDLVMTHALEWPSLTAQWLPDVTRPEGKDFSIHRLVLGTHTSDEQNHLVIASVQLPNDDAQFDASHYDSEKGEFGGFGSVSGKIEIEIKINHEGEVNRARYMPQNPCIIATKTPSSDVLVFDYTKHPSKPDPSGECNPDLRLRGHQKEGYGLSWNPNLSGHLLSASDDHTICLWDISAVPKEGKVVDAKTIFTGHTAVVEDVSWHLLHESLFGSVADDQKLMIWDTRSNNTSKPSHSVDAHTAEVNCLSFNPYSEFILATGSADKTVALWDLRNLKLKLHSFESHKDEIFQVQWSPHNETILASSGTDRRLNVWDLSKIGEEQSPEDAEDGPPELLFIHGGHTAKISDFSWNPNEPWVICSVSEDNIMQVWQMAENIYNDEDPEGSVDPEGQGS
Sequence (Q6ZN18 whole entry partner): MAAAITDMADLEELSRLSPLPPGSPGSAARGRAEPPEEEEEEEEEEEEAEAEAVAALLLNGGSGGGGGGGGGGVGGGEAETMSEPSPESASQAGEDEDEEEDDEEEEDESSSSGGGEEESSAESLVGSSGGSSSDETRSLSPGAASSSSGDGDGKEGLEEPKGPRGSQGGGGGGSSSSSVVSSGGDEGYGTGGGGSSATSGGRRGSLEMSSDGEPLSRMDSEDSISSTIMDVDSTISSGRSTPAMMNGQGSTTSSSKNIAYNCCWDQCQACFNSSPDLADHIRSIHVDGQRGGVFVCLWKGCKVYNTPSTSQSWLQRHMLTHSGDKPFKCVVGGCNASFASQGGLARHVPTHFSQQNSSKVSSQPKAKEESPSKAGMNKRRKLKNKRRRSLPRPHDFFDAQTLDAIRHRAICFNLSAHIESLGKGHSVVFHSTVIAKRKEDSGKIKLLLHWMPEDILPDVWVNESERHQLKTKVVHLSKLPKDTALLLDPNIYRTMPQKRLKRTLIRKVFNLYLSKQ
pIC50: −log10 of the molar value.
Quantity kind: pIC50

// known answers, use as guide
compound="CCN(c1cc(-c2ccc3c(c2)C2(CC=C(F)CC2)C(=O)N3)cc(C(=O)NCc2c(C)cc(C)[nH]c2=O)c1C)C1CCOCC1 (stereo not drawn)" test_value=9.24
compound=CCN(c1cc(-c2ccc3c(c2)NC(=O)C32CCOCC2)cc(C(=O)NCc2c(C)cc(C)[nH]c2=O)c1C)C1CCN(C)CC1 test_value=9.05
compound="CCN(c1cc(-c2ccc3c(c2)NC(=O)C32CCOCC2)cc(C(=O)NCc2c(OC)cc(C)[nH]c2=O)c1C)C1CCC(N(C)C)CC1 (stereo not drawn)" test_value=9.10
compound=CCN(c1cc(-c2ccc3c(c2)NC(=O)C32CCN(S(C)(=O)=O)CC2)cc(C(=O)NCc2c(C)cc(C)[nH]c2=O)c1C)C1CCOCC1 test_value=9.28

[I] CCN(c1cc(-c2ccc3c(c2)NC(=O)C32CCOCC2)cc(C(=O)NCc2c(OC)cc(C)[nH]c2=O)c1C)C1CCOCC1OC (stereo not drawn)
[II] CCN(c1cc(-c2ccc3c(c2)NC(=O)C32CCOCC2)cc(C(=O)NCc2c(C)cc(C)[nH]c2=O)c1C)C1CCC(N(C)C)CC1 (stereo not drawn)
Lab log: flag the item ( I or II ) with the smaller pIC50 figure. Mark your answer with the label of the selected entry.
I
